Values from paper PMC8213153

Listed here are molecules together with their documented viability at 48 h, 0.2 μg/mL.
Procedure summary: Cytotoxicity (MTT) assay of single and dual combinatory drugs
Type: cell-based
Condition label: human, HYDROXYCHLOROQUINE-FAVIPIRAVIR series; 0.2 μg/mL; read-out: Cell Viability (%)
Parameter measured: viability at 48 h, 0.2 μg/mL

{"Molecule": "NC(=O)c1nc(F)c[nH]c1=O [FAVI, Favipiravir]", "Measured result": "92.5%"}
{"Molecule": "CCN(CCO)CCCC(C)Nc1ccnc2cc(Cl)ccc12 (centres unmarked) [HCQ, Hydroxychloroquine]", "Measured result": "51.5%"}

###

Procedure summary: Cytotoxicity (MTT) assay of single and dual combinatory drugs
Assay type: cell-based
Condition label: human, HYDROXYCHLOROQUINE-LOPIRITO series; 10 μg/mL; read-out: Cell Viability (%)
Method: Each tablet containing drugs was triturated and mixed until homogenous. Approximately 50 mg equivalent mass of drugs were weighed and added to dimethyl sulfoxide in order to solubilize the drugs. […] The samples were prepared by diluting the stock solution of each drug with RPMI complete media at an appropriate level of dilution to produce a determined concentration. […] In this study, the cytotoxicity assay was evaluated for single and dual combinatory drugs during a period of 48 hours of drug incubation. […]

{"Compound": "CCN(CCO)CCCC(C)Nc1ccnc2cc(Cl)ccc12 (stereo not shown) [HCQ, Hydroxychloroquine]", "viability at 48 h, 10 μg/mL / %": 81.4}
